- Experimental target: human Edg-1 receptor (Homo sapiens, UniProt P21453)
- Construct: expressed in transfected cells; membrane preparation
- Sequence (P21453 whole entry): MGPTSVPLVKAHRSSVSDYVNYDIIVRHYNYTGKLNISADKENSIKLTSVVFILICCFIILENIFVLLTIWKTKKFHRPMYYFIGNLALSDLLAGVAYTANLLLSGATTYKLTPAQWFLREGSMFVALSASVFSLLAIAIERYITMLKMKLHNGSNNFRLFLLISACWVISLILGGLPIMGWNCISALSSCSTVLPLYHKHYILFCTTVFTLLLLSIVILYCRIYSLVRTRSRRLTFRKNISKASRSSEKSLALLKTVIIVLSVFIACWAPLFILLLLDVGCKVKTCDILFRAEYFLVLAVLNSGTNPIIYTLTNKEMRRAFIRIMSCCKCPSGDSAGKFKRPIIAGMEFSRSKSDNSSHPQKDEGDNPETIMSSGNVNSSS
- Test name: GTP-γ-S assay using human Edg-1 receptors (scintillation proximity assay, membrane preparation from CHO Flp-In cell line)
- Type: biochemical
- Measurement setup: example compound at 10 μM; relative to 10 μM S1P; GTP-γ-S SPA, human Edg-1 membranes
Reported % Activation (Edg-1 receptor activation in percent of the activation by 10 μM S1P) values for the following compounds.
Your answer should be a number followed by the unit of measure.

Would you please look over these solved cases?
[
  {
    "Compound": "CCCOc1nc(Cc2ccc(Cl)cc2)nc2oc(-c3cc(C)c(OCCCN[C@@H](CCSC)C(=O)OC)c(C)c3)nc12 [Example 229]",
    "Experimental target": "human Edg-1 receptor (Homo sapiens, UniProt P21453)",
    "Reported measurement": "70%"
  },
  {
    "Compound": "CCCOc1nc(Cc2ccc(Cl)cc2)nc2oc(-c3cccc(Cl)c3)nc12 [Example 130]",
    "Experimental target": "human Edg-1 receptor (Homo sapiens, UniProt P21453)",
    "Reported measurement": "78%"
  },
  {
    "Compound": "CCCOc1nc(CN2CCCOCC2)nc2oc(-c3cc(Cl)ccc3OC)nc12 [Example 74]",
    "Experimental target": "human Edg-1 receptor (Homo sapiens, UniProt P21453)",
    "Reported measurement": "114%"
  }
]

Incoming: % Activation (Edg-1 receptor activation in percent of the activation by 10 μM S1P) for CCOc1nc(Cc2ccc(Cl)cc2)nc2oc(-c3ccc(OCC(=O)NCCN4CCOCC4)c(F)c3)nc12 [Example 279] ?
Outgoing: 77%
